These data points were gathered from patent US20240124857A1.

Assay: pH profile of enzymes on 1 mM ATP
Assay type: biochemical
Conditions: 50 mM trisodium citrate/citric acid, 5 mM CaCl2, relative to the highest value
Property measured: Relative activity on ATP, pH 6
Give bare numbers.

In the examples that follow, each entry is paired with its recorded Relative activity on ATP, pH 6.
- Molecule: "CRC25099: Acid phosphatase (Class A), accession WP_195761705.1, SEQ ID NO:23 (protein, listed as Pantoea sp.) LQSSGFLTAETAPDSLAILPPPPAENSVTFQSDKAQYEAGHVLRNVARTELASKDADYKNFGQAFSAAFGMEISESHTPVLYHLLSEVLQDSHDFAMRGAKDHYKRVRPFVIYKDSTCTPDKDKSMSTTGSYPSGHASFGWAAALILAEINPSRETEIIRRGYDFGESRVVCGAHWQSDVENGRIMGATVVASLHANAKFAELLSQAKNEFATLSAQDSK"
  Recorded result: 0.8
- Molecule: "CRC25084: Acid phosphatase (Class A), accession WP_088823167.1, SEQ ID NO:20 (protein, listed as Acinetobacter apis) ADSNNSFLQLNQVPDSLKIVPAPPAFNSVDFLRDKAAYDQARSLVGTARWQQAAVDADLSDANIGKSFSEAFGVEISPTNTPVTYEILRKLRTDAGGYATKTAKEHYMRMRPFVFFNSHTCTPNDEASLSKNGAYPSGHTTIGWSSALILAEIRPDRQNEILERGYQYGQSRVICGVHWQSDVDAGRITGSAIVARLHADKDFAKTLEDAKREIQKKIK"
  Recorded result: 1.0

For each entry beneath this line, provide reported Relative activity on ATP, pH 6.
1. CRC25089: Acid phosphatase (Class A), accession WP_217352265.1, SEQ ID NO:22 (protein, listed as Paraburkholderia bonniea) AGSDGFLTAETAPSSLAILPPPPAENTVAFLNDKANYEIGRSLKNDARVALAASDANCKNINAIFSSAFGREISEEKTPKLYRLLLGVLQDSHDHAMKSAKNHYMRVRPFVMYGDKTCTPEEDNKMKNTGSYPSGHASFGWAAALVLSEINPERTTEILRRGYDFGQSRVVCGAHWQSDVDNGRLMGAAVVADLHNNDKFIKALEAAKAEFKENTPGN
2. CRC25085: Acid phosphatase (Class A), accession WP_092747651.1, SEQ ID NO:21 (protein, listed as Acinetobacter boissieri) LEQSNSFLQLAQVPDSLAIVPAPPAYNSVDFLRDKAAYDQAKSLVGTERWKVAAEDADLSDANIGKPFSQALGIEISPQNTPITYEILRKLRTDAGNYATKAAKEHYMRLRPFMFFNSHTCTPNDEANLSKNGAYPSGHTTIGWSSALVLAEIRPERQNEILQRGYEYGQSRVICGVHWQSDVDAGRITGSAIVARLHADKAFTKMLEEAKQEIQRKTK
3. CRC25082: Acid phosphatase (Class A), accession WP_050460978.1, SEQ ID NO:19 (protein, listed as Herbaspirillum autotrophicum) KGAAGFLNGQTAPDSLAILPPPPAEDSVAFQADKAQYETGHVLRDPERVEQARQDADYRNFGHAFSAAFGMEISATHTPVLYQLLTEVLQDSHDYAMKAAKNHYKRVRPFVVYKDPTCTPGQDEKMALSGSYPSGHASFGWAAALVLAEINPARQTEILQRGYAFGKSRVICGAHWQSDVDNGQLMGAAVVAALHSNSQFAAALNAAKNEFAGLRAQDNKK

Return:
1: 0.3; 2: 0.8; 3: 1.0
